- TARGET_ENTITY: REV-ERBα LBD (human; residues 281-614 Δ324-422) (Homo sapiens, UniProt P20393, DEL324-422)
- Construct: 6×Histag-REV-ERBα LBD (human; residues 281-614 Δ324-422); made in house; host or cells: Escherichia coli
- Sequence (P20393 with tags, fused parts or gaps DEL324-422): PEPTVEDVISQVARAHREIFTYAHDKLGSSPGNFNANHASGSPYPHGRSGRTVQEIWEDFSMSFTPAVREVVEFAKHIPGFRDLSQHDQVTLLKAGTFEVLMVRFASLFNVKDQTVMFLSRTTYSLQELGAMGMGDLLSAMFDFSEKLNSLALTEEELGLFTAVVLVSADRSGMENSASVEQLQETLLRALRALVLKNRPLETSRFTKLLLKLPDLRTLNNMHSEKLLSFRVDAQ
- Sequence (Q9Y618 2335-2356 partner limits assumed): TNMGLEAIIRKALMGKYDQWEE
- ASSAY_OVERVIEW: TR-FRET corepressor interaction assay (REV-ERBα LBD, FITC-SMRT peptide)
- Type: biochemical
- RUN_PARAMETERS: Table 2, read-out: REVERBα agonism (EC50 class, FRET assay)
The reader will find reported EC50 values listed item by item below.

Answered examples (3):
1) CC(C)Cn1cc([C@H](NS(=O)(=O)N(C)C)C(F)(F)F)c2cc(F)c(-c3ccccc3C(F)(F)F)cc21 :: < 500 nM
2) CN(C)S(=O)(=O)NCCc1cn(Cc2ccc(F)cc2)c2cc(-c3ccncc3)ccc12 :: 500 to 3000 nM
3) O=S(=O)(NCCc1cn(CC2CCCC2)c2cc(-c3ccncc3Cl)ccc12)C1CC1 :: < 500 nM

Next:
Enquiry: // Input: "CC(C)(C)Cn1cc(CCNS(=O)(=O)C2CC2)c2ccc(-c3ccc(C(F)(F)F)cc3C#N)cc21" . Output its EC50 only.
Return: < 500 nM

###

- TARGET_ENTITY: REV-ERBα LBD (human; residues 281-614 Δ324-422) (Homo sapiens, UniProt P20393, DEL324-422)
- Construct: 6×Histag-REV-ERBα LBD (human; residues 281-614 Δ324-422); made in house; host or cells: Escherichia coli
- ASSAY_OVERVIEW: TR-FRET corepressor interaction assay (REV-ERBα LBD, FITC-SMRT peptide)
- Type: biochemical
- RUN_PARAMETERS: Table 2, read-out: REVERBα agonism (EC50 class, FRET assay)
The reader will find reported EC50 values listed item by item below.

Answered examples (8):
1) CC(C)C(=O)n1cc(C(C)NS(=O)(=O)N(C)C)c2ccc(-c3ccncc3)cc21 (stereo not drawn) :: < 500 nM
2) CC(C)Cn1cc(CCNS(=O)(=O)N(C)C)c2ccc(-n3ccnc3)cc21 :: 500 to 3000 nM
3) CC(C)(C)Cn1cc(CCNS(=O)(=O)C2CC2)c2ccc(-c3ccc(Cl)cc3C(F)(F)F)cc21 :: < 500 nM
4) CN(C)S(=O)(=O)N[C@@H](c1cn(CC(C)(C)C)c2cc(-c3ccccc3C(F)(F)F)ccc12)C(F)(F)F :: < 500 nM
5) CC(C)(O)Cn1cc([C@H](NS(=O)(=O)C2CCC2)C(F)(F)F)c2ccc(-c3ccccc3C(F)(F)F)nc21 (racemic) :: 500 to 3000 nM
6) CN(C)CCn1cc(CCNS(=O)(=O)N(C)C)c2ccc(Br)cc21 :: > 3000 nM
7) CC(C)Cn1cc(CCNS(=O)(=O)N(C)C)c2cc(F)c(-c3ccncc3)cc21 :: < 500 nM
8) CC(C)Cn1cc(CCNS(=O)(=O)N(C)C)c2cccc(Br)c21 :: 500 to 3000 nM

Next:
Enquiry: // Input: "CC(C)Cn1cc(CCN(C)S(=O)(=O)N(C)C)c2ccc(N(C)C)cc21" . Output its EC50 only.
Return: 500 to 3000 nM

###

- TARGET_ENTITY: REV-ERBα LBD (human; residues 281-614 Δ324-422) (Homo sapiens, UniProt P20393, DEL324-422)
- Construct: 6×Histag-REV-ERBα LBD (human; residues 281-614 Δ324-422); made in house; host or cells: Escherichia coli
- ASSAY_OVERVIEW: TR-FRET corepressor interaction assay (REV-ERBα LBD, FITC-SMRT peptide)
- Type: biochemical
- RUN_PARAMETERS: FITC-SMRT peptide, read-out: REVERBα agonism (EC50 class, FRET assay)
PROPERTY: EC50

Answered examples (8):
1. CC(C)C(=O)n1cc([C@H](NS(=O)(=O)C2CCC2)C(F)(F)F)c2ccc(-c3ccccc3C(F)(F)F)cc21 :: < 500 nM
2. CCC(NS(=O)(=O)C1CCC1)c1cn(CC(C)(C)C)c2cc(-c3ccccc3C(F)(F)F)ccc12 (stereo not shown) :: < 500 nM
3. CC(F)(F)Cn1cc([C@H](NS(=O)(=O)C2CCC2)C(F)(F)F)c2ccc(-c3ccccc3C(F)(F)F)cc21 :: 500 to 3000 nM
4. CC(C)(C)Cn1cc([C@H](NS(=O)(=O)C2CCC2)C(F)(F)F)c2cc(F)c(-c3ncccc3C#N)cc21 :: < 500 nM
5. NC(=O)c1cccc(F)c1-c1ccc2c([C@H](NS(=O)(=O)C3CCC3)C(F)(F)F)cn(C3CCOCC3)c2c1 :: > 3000 nM
6. CC(C)(C)Cn1cc([C@H](NS(=O)(=O)C2CCC2)C(F)F)c2cc(F)c(-c3ccccc3C(F)(F)F)nc21 :: < 500 nM
7. CC(C)(C)Cn1cc([C@H](NS(=O)(=O)C2CCC2)C(F)F)c2ccc(-c3ccccc3C(F)(F)F)cc21 :: < 500 nM
8. CC(C)(C)Cc1cn(CCNS(=O)(=O)C2CC2)c2ccc(-c3ccc(C(F)(F)F)cc3C#N)cc12 :: 500 to 3000 nM

Enquiry: Report value only: EC50, REV-ERBα LBD (human; residues 281-614 Δ324-422) (Homo sapiens, UniProt P20393, DEL324-422), "CC(C)(C)Cn1cc([C@H](NS(=O)(=O)C2CCC2)C(F)(F)F)c2ccc(-c3ccccc3C#N)nc21"
Return: < 500 nM

Enquiry: Report value only: EC50, REV-ERBα LBD (human; residues 281-614 Δ324-422) (Homo sapiens, UniProt P20393, DEL324-422), "CC(C)(C)Cn1cc([C@H](NS(=O)(=O)C2CCC2)C(F)(F)F)c2ccc(-c3ccccc3C#N)cc21"
Return: < 500 nM

###

- TARGET_ENTITY: REV-ERBα LBD (human; residues 281-614 Δ324-422) (Homo sapiens, UniProt P20393, DEL324-422)
- Construct: 6×Histag-REV-ERBα LBD (human; residues 281-614 Δ324-422); made in house; host or cells: Escherichia coli
- ASSAY_OVERVIEW: TR-FRET corepressor interaction assay (REV-ERBα LBD, FITC-SMRT peptide)
- Assay type: biochemical
- RUN_PARAMETERS: Table 2, read-out: REVERBα agonism (EC50 class, FRET assay)
pEC50: −log10 of the molar value.
PROPERTY: pEC50

Enquiry: // Input: "CC(C)(C)Cc1cn(CCNS(=O)(=O)C2CC2)c2ccc(-c3ccc(F)cc3C(F)(F)F)c(F)c12" . Output its pEC50 only.
Return: 5.52 to 6.30

Enquiry: // Input: "CC(C)c1ccc2c([C@H](NS(=O)(=O)C3CC3)C(F)(F)F)cn(CC(C)(C)C)c2c1" . Output its pEC50 only.
Return: > 6.30

Enquiry: // Input: "CNS(=O)(=O)c1ccccc1-c1ccc2c(CCNS(=O)(=O)N(C)C)cn(CC(C)C)c2c1" . Output its pEC50 only.
Return: 5.52 to 6.30

Enquiry: // Input: "CC(C)(C)Cn1cc(CCNS(=O)(=O)C2CC2)c2ccc(-c3ccc(C(F)(F)F)cc3Cl)cc21" . Output its pEC50 only.
Return: > 6.30

Enquiry: // Input: "CC(C)Cn1cc(CCNS(=O)(=O)C2CC2)c2ccc(-c3ccncc3)cc21" . Output its pEC50 only.
Return: > 6.30

Enquiry: // Input: CC(C)Cn1cc(CNS(=O)(=O)N(C)C)c2ccc(-c3ccncc3)cc21 [Compound 239] . Output its pEC50 only.
Return: > 6.30

Enquiry: // Input: "CC(C)(C)Cc1cn(CCNS(=O)(=O)C2CC2)c2cc(F)c(Br)cc12" . Output its pEC50 only.
Return: < 5.52

###

The reader will find reported pEC50 values listed item by item below.
- TARGET_ENTITY: REV-ERBα LBD (human; residues 281-614 Δ324-422) (Homo sapiens, UniProt P20393, DEL324-422)
- Construct: 6×Histag-REV-ERBα LBD (human; residues 281-614 Δ324-422); made in house; host or cells: Escherichia coli
- ASSAY_OVERVIEW: TR-FRET corepressor interaction assay (REV-ERBα LBD, FITC-SMRT peptide)
- Type: biochemical
- RUN_PARAMETERS: FITC-SMRT peptide, read-out: REVERBα agonism (EC50 class, FRET assay)
pEC50: −log10 of the molar value.

1) CC(C)(C)Cn1cc([C@H](NS(=O)(=O)C2CC2)C(F)(F)F)c2ccc(-c3cccc(C#N)c3F)cc21 :: 5.52 to 6.30
2) CC(C)(C)Cn1cc([C@H](NS(=O)(=O)C2CC2)C(F)(F)F)c2ccc(-c3cccnc3C#N)cc21 :: > 6.30

Enquiry: // Input: "[2H][C@](NS(=O)(=O)C1CCC1)(c1cn(CC(C)(C)C)c2cc(-c3ccccc3C(F)(F)F)ccc12)C(F)F" . Output its pEC50 only.
Return: > 6.30
